# ASSAYED_SYSTEM: HIV-1 envelope glycoprotein (gp120) of virus 7141 (HIV-1)
# ASSAY_PROTOCOL: cell-based or functional assay
MEASURED_PROPERTY: Neutralization IC50 (µg/mL)
Write down the numeric answer in µg/mL and omit the unit.

Problem: Fill blank: measured Neutralization IC50 of the binder 2.2.13-1 (antibody, human IgG1, kappa, V domains shown) VH: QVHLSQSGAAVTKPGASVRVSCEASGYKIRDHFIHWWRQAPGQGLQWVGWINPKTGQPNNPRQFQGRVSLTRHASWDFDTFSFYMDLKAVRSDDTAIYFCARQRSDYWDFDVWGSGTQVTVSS VL: DIQMTQSPSSLSARVGDRATITCQANGYLNWYQQRRGKAPKLLIYDGSKLERGVPARFSGSRWGQEYILTISSLQPEDVATYFCQVYEFFGPGTRLDLKR is ____.
Result: 3.8

Problem: Quick one: Neutralization IC50 of 1.1.118-1 (antibody, human IgG1, kappa, V domains shown) VH: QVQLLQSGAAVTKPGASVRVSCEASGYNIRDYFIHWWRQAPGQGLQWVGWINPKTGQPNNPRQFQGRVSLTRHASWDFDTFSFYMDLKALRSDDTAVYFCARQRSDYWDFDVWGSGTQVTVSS VL: DIQMTQSPSSLSASVGDRATITCQANGYLNWYQQRRGKAPKLLIYDGSKLERGVPSRFSGSRWGQEYILTISSLQPEDIATYFCQVYEFFGPGTRLDLKR ?
Result: 20.2

Problem: What does the record list as Neutralization IC50 for 3.1.15-1 (antibody, human IgG1, kappa, V domains shown) VH: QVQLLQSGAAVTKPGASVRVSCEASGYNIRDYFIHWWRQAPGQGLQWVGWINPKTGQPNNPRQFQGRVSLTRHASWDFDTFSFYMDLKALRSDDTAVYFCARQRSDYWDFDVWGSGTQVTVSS VL: DIQMTQSPSSLSARVGDTATITCQANGYLNWYQQRRGKAPKLLIYDGSKLERGVPARFSGRRWGQEYTLTINNLQPEDVATYFCQVYEFFGPGTRLDLKR ?
Result: 9.1
